Assay: in vitro metabolism, human liver microsomes
Assay type: in vitro ADME
Conditions: human, pooled human liver microsomes
experimental endpoint: microsomal CLint at 1 μM

Query: Fill in microsomal CLint at 1 μM for record Cc1cc(NC2CCc3ccc(Br)cc3C2)n2nc(C(C)(F)F)nc2n1 (stereo not shown) [Compound 13]
Response: < 7 µL/min/mg

---

I'd appreciate it if you could supply CLint scaled at 1 μM values for the items below.
Assay: in vitro metabolism, human liver microsomes
Format: in vitro ADME
Details: human, pooled human liver microsomes
Form entry: value (mL/min/kg) — number only.

Query: Fill in CLint scaled at 1 μM for record Cc1cc(NC2Cc3c(F)ccc(F)c3C2)n2nc(C(C)(F)F)nc2n1
Response: 27

Query: Fill in CLint scaled at 1 μM for record Cc1cc(NC2Cc3ccccc3C2)n2nc(C(C)(F)F)nc2n1
Response: 20

Query: Fill in CLint scaled at 1 μM for record Cc1cc(NC2Cc3cccc(C(F)(F)F)c3C2)n2nc(C(C)(F)F)nc2n1 (centres unmarked)
Response: 25

Query: Fill in CLint scaled at 1 μM for record COc1ccc2c(c1)CC(Nc1cc(C)nc3nc(C(C)(F)F)nn13)CC2 (centres unmarked)
Response: 15

Query: Fill in CLint scaled at 1 μM for record Cc1cc(NC2CCc3cc(F)ccc3C2)n2nc(C(C)(F)F)nc2n1 (centres unmarked)
Response: 12

Query: Fill in CLint scaled at 1 μM for record Cc1cc(NC2Cc3c(C)ccc(C)c3C2)n2nc(C(C)(F)F)nc2n1
Response: 138

Query: Fill in CLint scaled at 1 μM for record Cc1cc(NC2Cc3ccc(Cl)cc3C2)n2nc(C(C)(F)F)nc2n1 (centres unmarked)
Response: 8.2

Query: Fill in CLint scaled at 1 μM for record Cc1cc(NC2Cc3cccc(F)c3C2)n2nc(C(C)(F)F)nc2n1 (centres unmarked)
Response: 9.1

Query: Fill in CLint scaled at 1 μM for record Cc1cc(NC2CCc3cc(F)c(F)cc3C2)n2nc(C(C)(F)F)nc2n1 (centres unmarked)
Response: 9.1

Query: Fill in CLint scaled at 1 μM for record Cc1cc(NC2CCc3ccc(Cl)cc3C2)n2nc(C(F)(F)F)nc2n1 (centres unmarked)
Response: 7.4

---

Experiment: in vivo
Settings: Sprague-Dawley, rat, plasma, iv
experimental endpoint: clearance (mL/min/kg)
Form entry: value (mL/min/kg) — number only.

Query: Fill in clearance for record Cc1cc(NC2CCc3cc(Cl)ccc3C2)n2nc(C(C)(F)F)nc2n1 (stereo not drawn)
Response: 3.5

Query: Fill in clearance for record Cc1cc(NC2CCc3ccc(Br)cc3C2)n2nc(C(C)(F)F)nc2n1 (stereo not drawn)
Response: 22.4

Query: Fill in clearance for record Cc1cc(NC2CCc3cc(Br)ccc3C2)n2nc(C(C)(F)F)nc2n1 (stereo not drawn)
Response: 2.8

---

I'd appreciate it if you could supply solubility kinetic at 30 min values for the items below.
Test: kinetic aqueous solubility by nephelometry
Assay type: physicochemical
Settings: pH 6.5 phosphate buffer, pH 6.5

Query: Fill in solubility kinetic at 30 min for record Cc1cc(NC2Cc3cc(F)c(F)cc3C2)n2nc(C(C)(F)F)nc2n1
Response: 6.3 to 12.5 µg/mL

Query: Fill in solubility kinetic at 30 min for record Cc1cc(NC2Cc3c(C)ccc(C)c3C2)n2nc(C(C)(F)F)nc2n1
Response: 6.3 to 12.5 µg/mL

Query: Fill in solubility kinetic at 30 min for record Cc1cc(NC2CCc3cc(C(F)(F)F)c(F)cc3C2)n2nc(C(C)(F)F)nc2n1 (centres unmarked)
Response: 1.6 to 3.1 µg/mL

Query: Fill in solubility kinetic at 30 min for record Cc1cc(NC2Cc3ccccc3C2)n2nc(C(C)(F)F)nc2n1
Response: 25 to 50 µg/mL

Query: Fill in solubility kinetic at 30 min for record Cc1cc(NC2CCc3cc(F)ccc3C2)n2nc(C(C)(F)F)nc2n1 (centres unmarked)
Response: 6.3 to 12.5 µg/mL

Query: Fill in solubility kinetic at 30 min for record Cc1cc(NC2CCc3cc(Cl)ccc3C2)n2nc(C(C)(F)F)nc2n1 (centres unmarked)
Response: 3.1 to 6.3 µg/mL

Query: Fill in solubility kinetic at 30 min for record Cc1cc(NC2Cc3cccc(C(F)(F)F)c3C2)n2nc(C(C)(F)F)nc2n1 (centres unmarked)
Response: 6.3 to 12.5 µg/mL

Query: Fill in solubility kinetic at 30 min for record Cc1cc(NC2CCc3ccc(Cl)cc3C2)n2nc(C(F)(F)F)nc2n1 (centres unmarked)
Response: 1.6 to 3.1 µg/mL

Query: Fill in solubility kinetic at 30 min for record Cc1cc(N[C@H]2CCc3ccc(Cl)cc3C2)n2nc(C(C)(F)F)nc2n1
Response: 3.1 to 6.3 µg/mL

Query: Fill in solubility kinetic at 30 min for record Cc1cc(NC2CCc3cc(F)c(C(F)(F)F)cc3C2)n2nc(C(C)(F)F)nc2n1 (centres unmarked)
Response: 3.1 to 6.3 µg/mL

Query: Fill in solubility kinetic at 30 min for record Cc1cc(NC2Cc3cccc(F)c3C2)n2nc(C(C)(F)F)nc2n1 (centres unmarked)
Response: 12.5 to 25 µg/mL
